Parameter 'readout' = ΔTm; parameter 'system' = Polymerase acidic protein (Influenza A virus (A/Puerto Rico/8/1934(H1N1))).
Dear colleague, please return just the value in °C, with no unit written.

> print(dat)
                  structure.notation  unit.tag  measured.value
1  O=C(O)c1[nH]c(-c2ccccc2)cc(=O)c1O        °C             8.5

# get_value(readout= ΔTm, system= Polymerase acidic protein (Influenza A virus (A/Puerto Rico/8/1934(H1N1)))) for Cc1cc(-c2noc(=O)[nH]2)ccc1-c1cc(=O)c(O)c(C(=O)O)[nH]1
16.3

Record lookup: for Polymerase acidic protein (Influenza A virus (A/Puerto Rico/8/1934(H1N1))), what ΔTm belongs to O=C(O)c1[nH]c(-c2ccccc2C(F)(F)F)cc(=O)c1O ?
13.3

Item O=C(O)c1[nH]c(-c2cccc(Oc3ccccc3)c2)cc(=O)c1O with Polymerase acidic protein (Influenza A virus (A/Puerto Rico/8/1934(H1N1))) - ΔTm?
9

# get_value(readout= ΔTm, system= Polymerase acidic protein (Influenza A virus (A/Puerto Rico/8/1934(H1N1)))) for Cc1ccc(-c2cc(=O)c(O)c(C(=O)O)[nH]2)cc1
10.3

Enter reported ΔTm observed with Polymerase acidic protein (Influenza A virus (A/Puerto Rico/8/1934(H1N1))) for Cc1cccc(-c2cc(=O)c(O)c(C(=O)O)[nH]2)c1
10.7

Kindly state the measured ΔTm obtained for CCc1ccccc1-c1cc(=O)c(O)c(C(=O)O)[nH]1 with Polymerase acidic protein (Influenza A virus (A/Puerto Rico/8/1934(H1N1))).
13.1

Record lookup: for Polymerase acidic protein (Influenza A virus (A/Puerto Rico/8/1934(H1N1))), what ΔTm belongs to O=C(O)c1[nH]c(-c2cccc(-c3nnn[nH]3)c2)cc(=O)c1O ?
12.9

###

biological target: Polymerase acidic protein (Influenza A virus (A/Puerto Rico/8/1934(H1N1)), UniProt P03433); experiment: Inhibition of Influenza A virus RNA-dependent RNA polymerase PA N-terminal endonuclease using [6-FAM]AATCGCAGGCAGCACTC[TAM] substrate and measured over 45 mins by fluorescence based assay; settings: read-out: IC50
Listed here: items and their measured pIC50.
Expect pIC50 as a plain number equal to -log10 of the molar concentration.

See these solved cases before continuing.
> print(dat)
                         structure.notation  measured.value
1  CC(C)c1cccc(-c2cc(=O)c(O)c(C(=O)O)[nH]2)c1            8.20
2  O=C(O)c1[nH]c(-c2ccccc2Oc2ccccc2)cc(=O)c1O            8.22
3  O=C(O)c1[nH]c(-c2ccc(Oc3ccccc3)cc2)cc(=O)c1O            7.60
4  O=C(O)c1cccc(-c2cc(=O)c(O)c(C(=O)O)[nH]2)c1            8.64
5  Cc1cc(-c2nnn[nH]2)ccc1-c1cc(=O)c(O)c(C(=O)O)[nH]1            6.96

If you can, please state the reported pIC50 value of O=C(O)c1[nH]c(-c2cccc(Oc3ccccc3)c2)cc(=O)c1O .
7.85

# lookup: pIC50 of CSc1ccccc1-c1cc(=O)c(O)c(C(=O)O)[nH]1
8.49

Requested field: pIC50. Item: O=C(O)c1[nH]c(-c2ccc(-c3nnn[nH]3)cc2C(F)(F)F)cc(=O)c1O
7.33

Would you mind telling me what pIC50 value was observed for COc1ccccc1-c1cc(=O)c(O)c(C(=O)O)[nH]1 ?
8.64

May I ask what pIC50 has been recorded for O=C(O)c1[nH]c(-c2ccccc2)cc(=O)c1O ?
8.25

Which value of pIC50 has been reported for Cc1cccc(-c2cc(=O)c(O)c(C(=O)O)[nH]2)c1 in the records?
8.32

// lookup pIC50 for CC(C)c1ccccc1-c1cc(=O)c(O)c(C(=O)O)[nH]1
8.49

What value of pIC50 has been reported for the following compound? Cc1cc(-c2noc(=O)[nH]2)ccc1-c1cc(=O)c(O)c(C(=O)O)[nH]1
6.92

Requested read-out: pIC50. Entry: Cc1ccc(-c2cc(=O)c(O)c(C(=O)O)[nH]2)cc1
8.14

GET /values?readout=pIC50&item= Cc1cc(C(=O)O)ccc1-c1cc(=O)c(O)c(C(=O)O)[nH]1
6.64

###

Documented selectivity ratio at 12 h across a set of compounds
assay: Selectivity index, ratio of CC50 for cytotoxicity in MDCK cells assessed as reduction in cell viability incubated for 12 hrs by MTT assay to EC50 for antiviral activity against Influenza A virus (A/California/04/2009(H1N1)) ATCC VR-1737 infected in MDCK cells assessed as reduction in virus-induced cytopathic effect incubated for 48 hrs by Cell-titer-Glo luminescence assay; type: toxicity, cell-based; details: dog, read-out: Ratio CC50/EC50

> print(dat)
                         structure.notation          measured.property  measured.value
1  Cc1cc(-c2nnn[nH]2)ccc1-c1cc(=O)c(O)c(C(=O)O)[nH]1  selectivity ratio at 12 h        35 to 75
2  O=C(O)/C(O)=C/C(=O)C1(Cc2ccc(Cl)cc2)CCN(Cc2ccccc2)CC1  selectivity ratio at 12 h        35 to 75
3  O=C(O)c1[nH]c(-c2ccc(-c3nnn[nH]3)cc2)cc(=O)c1O  selectivity ratio at 12 h           > 100
4  O=C(O)c1[nH]c(-c2ccc(-c3nnn[nH]3)cc2C(F)(F)F)cc(=O)c1O  selectivity ratio at 12 h        35 to 75

Now turn to the next compound.
Looking for the measured selectivity ratio at 12 h of O=C(O)c1[nH]c(-c2ccccc2C(F)(F)F)cc(=O)c1O , can you help?
35 to 75

###

Some compounds, each annotated with its measured pEC50.
test: Antiviral activity against Influenza A virus (A/California/04/2009(H1N1)) ATCC VR-1737 infected in MDCK cells assessed as reduction in virus-induced cytopathic effect incubated for 48 hrs by Cell-titer-Glo luminescence assay; format: functional, cell-based; settings: ATCC VR-1737, MDCK
On this scale, pEC50 is minus log10 of a concentration expressed in M (mol/L).

Solved entries:
> print(dat)
                         structure.notation  measured.property  measured.value
1  O=C(O)/C(O)=C/C(=O)C1(Cc2ccc(Cl)cc2)CCN(Cc2ccccc2)CC1              pEC50            5.13
2  O=C(O)c1[nH]c(-c2ccc(-c3nnn[nH]3)cc2C(F)(F)F)cc(=O)c1O              pEC50            4.94
3  O=C(O)c1[nH]c(-c2ccccc2C(F)(F)F)cc(=O)c1O              pEC50            4.98

// moving on: another record for pEC50
Recorded pEC50 for O=C(O)c1[nH]c(-c2ccc(-c3nnn[nH]3)cc2)cc(=O)c1O , please?
5.11

###

target: Polymerase acidic protein (Influenza A virus (A/Puerto Rico/8/1934(H1N1))) (UniProt P03433)
MEASURED_PROPERTY: ΔTm

Example entries and their recorded answers appear below.
> print(dat)
                         structure.notation  measured.property  measured.value
1  O=C(O)c1[nH]c(-c2ccc(-c3nnn[nH]3)cc2)cc(=O)c1O                ΔTm         14.1 °C
2               Cc1cc(=O)c(O)c(C(=O)O)[nH]1                ΔTm         11.1 °C
3  Cc1cc(C(=O)O)ccc1-c1cc(=O)c(O)c(C(=O)O)[nH]1                ΔTm         15.3 °C
4  CC(C)c1cccc(-c2cc(=O)c(O)c(C(=O)O)[nH]2)c1                ΔTm         10.1 °C
5  O=C(O)c1[nH]c(-c2ccc(-c3nnn[nH]3)cc2C(F)(F)F)cc(=O)c1O                ΔTm         17.8 °C
6     CSc1ccccc1-c1cc(=O)c(O)c(C(=O)O)[nH]1                ΔTm         11.8 °C
7  Cc1cc(-c2nnn[nH]2)ccc1-c1cc(=O)c(O)c(C(=O)O)[nH]1                ΔTm         16.5 °C

Kindly review the next compound as well.
So what's the measured ΔTm for this one? O=C(O)c1ccc(-c2cc(=O)c(O)c(C(=O)O)[nH]2)cc1
11.9 °C

###

Recorded IC50, one value per entry.
target: Polymerase acidic protein (Influenza A virus (A/Puerto Rico/8/1934(H1N1)), UniProt P03433); test: Inhibition of Influenza A virus RNA-dependent RNA polymerase PA N-terminal endonuclease using [6-FAM]AATCGCAGGCAGCACTC[TAM] substrate and measured over 45 mins by fluorescence based assay; conditions: read-out: IC50

These solved cases illustrate the format of a correct answer.
> print(dat)
                         structure.notation  measured.property  measured.value
1  O=C(O)c1ccc(-c2cc(=O)c(O)c(C(=O)O)[nH]2)cc1               IC50          < 2 nM
2  O=C(O)c1[nH]c(-c2cccc(-c3nnn[nH]3)c2)cc(=O)c1O               IC50          < 2 nM
3  O=C(O)c1[nH]c(-c2ccccc2C(F)(F)F)cc(=O)c1O               IC50          < 2 nM
4  O=C(O)c1[nH]c(-c2ccc(-c3nnn[nH]3)cc2)cc(=O)c1O               IC50          < 2 nM

Look at this compound and give its reported IC50. CCc1ccccc1-c1cc(=O)c(O)c(C(=O)O)[nH]1
< 2 nM
